Assay: Pharmacokinetics in beagle dogs
Type: in vivo
Conditions: male, beagle, dog, plasma, po, 3 mg/kg, oral administration 3 mg/kg, read-out: Bioavailability F
OBSERVATION_TYPE: bioavailability

Query block: Fill in reported bioavailability for this entry: NS(=O)(=O)Nc1ncnc(OCCOc2ncc(Br)cn2)c1-c1ccc2c(c1)OCO2 [WX001]
Result block: > 50%

* * *

Assay: Pharmacokinetics in SD rats
Type: in vivo
Settings: male, Sprague-Dawley, rat, plasma, intravenous injection 2 mg/kg
OBSERVATION_TYPE: half-life (h)
Give the number; h is assumed, so skip it.

SMILES_NOTATION | half-life (h)
COCCNS(=O)(=O)Nc1ncnc(OCCOc2ncc(Br)cn2)c1-c1ccc2c(c1)OCO2 | 1.14

Now consider a different molecule.
Query block: Fill in reported half-life for this entry: `NS(=O)(=O)Nc1ncnc(OCCOc2ncc(Br)cn2)c1-c1ccc2c(c1)OCO2`
Result block: 1.26

* * *

pIC50, CYP2D6 (Homo sapiens, UniProt P10635), per-entry values.
pIC50: −log10 of the molar value.

COMPOUND | pIC50
CCCNS(=O)(=O)Nc1ncnc(OCCOc2ncc(Br)cn2)c1-c1ccc2ccnn2c1 [WX025] | < 4.30
COCCNS(=O)(=O)Nc1ncnc(OCCOc2ncc(Br)cn2)c1-c1ccc2c(c1)OCO2 [WX013] | < 4.30

Now consider a different compound.
Query block: Fill in reported pIC50 for this entry: CCCNS(=O)(=O)Nc1ncnc(OCCOc2ncc(Br)cn2)c1-c1ccc(Br)cc1 [macitentan, reference compound]
Result block: < 4.30

* * *

Target: human ETB receptor (Homo sapiens)
Sequence (P24530 27-442): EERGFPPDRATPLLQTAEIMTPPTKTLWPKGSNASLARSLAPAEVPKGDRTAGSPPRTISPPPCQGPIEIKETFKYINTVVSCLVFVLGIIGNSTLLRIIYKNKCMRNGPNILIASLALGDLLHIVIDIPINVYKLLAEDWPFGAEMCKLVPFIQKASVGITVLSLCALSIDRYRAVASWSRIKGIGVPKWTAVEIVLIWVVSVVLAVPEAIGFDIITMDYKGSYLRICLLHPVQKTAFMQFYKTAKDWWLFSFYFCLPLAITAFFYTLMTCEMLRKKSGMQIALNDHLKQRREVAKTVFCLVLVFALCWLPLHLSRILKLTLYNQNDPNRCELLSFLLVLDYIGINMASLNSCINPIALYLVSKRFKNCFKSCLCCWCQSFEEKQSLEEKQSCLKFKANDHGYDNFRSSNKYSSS
Assay: In vitro antagonistic effect against human ETB receptor, Ca2+ signal in transfected CHO cells
Conditions: response to 0.3 nM endothelin-1
Entries and their IC50
Give the number; µM is assumed, so skip it.

Worked examples, 5 molecules total:
MOLECULE | UNIT_SPEC | READOUT_NUMBER
O=S(=O)(Nc1ncnc(OCCOc2ncc(Br)cn2)c1-c1ccc2c(c1)OCO2)NC1CCC1 | µM | 22
COCCCNS(=O)(=O)Nc1ncnc(OCCOc2ncc(Br)cn2)c1-c1ccc2c(c1)OCO2 | µM | 16
CCCCNS(=O)(=O)Nc1ncnc(OCCOc2ncc(Br)cn2)c1-c1ccc2c(c1)OCO2 | µM | 16
O=S(=O)(NCC1CCCO1)Nc1ncnc(OCCOc2ncc(Br)cn2)c1-c1ccc2c(c1)OCO2 (centres unmarked) [WX021] | µM | 46
O=S(=O)(NCC1CC1)Nc1ncnc(OCCOc2ncc(Br)cn2)c1-c1ccc2c(c1)OCO2 | µM | 35

Now consider a different molecule.
Query block: Fill in reported IC50 for this entry: `CCOCCCNS(=O)(=O)Nc1ncnc(OCCOc2ncc(Br)cn2)c1-c1ccc2c(c1)OCO2`
Result block: 9.6

* * *

Molecular target: human ETA receptor (Homo sapiens, UniProt P25101)
Construct: endogenously expressed human ETA receptors in SK-N-MC cells
Sequence (P25101 21-427): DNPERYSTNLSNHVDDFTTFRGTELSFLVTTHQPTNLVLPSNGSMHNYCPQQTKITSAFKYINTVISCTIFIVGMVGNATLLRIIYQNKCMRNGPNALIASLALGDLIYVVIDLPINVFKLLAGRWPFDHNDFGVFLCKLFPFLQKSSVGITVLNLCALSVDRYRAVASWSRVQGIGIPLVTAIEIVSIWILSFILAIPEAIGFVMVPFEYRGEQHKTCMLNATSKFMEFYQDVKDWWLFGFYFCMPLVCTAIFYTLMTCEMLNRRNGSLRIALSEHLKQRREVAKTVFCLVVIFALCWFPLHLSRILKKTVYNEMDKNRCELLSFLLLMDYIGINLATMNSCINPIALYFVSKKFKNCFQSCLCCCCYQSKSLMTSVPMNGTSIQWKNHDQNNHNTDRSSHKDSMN
Experiment: In vitro antagonistic effect against human ETA receptor, Ca2+ signal in SK-N-MC cells
Details: SK-N-MC cells, response to 1 nM endothelin-1
Entries and their pIC50
In textbook form, pIC50 equals minus log to base ten of the concentration in mol/L.

Worked examples, 2 compounds total:
COMPOUND | OBSERVATION_TYPE | READOUT_NUMBER
O=S(=O)(NCC1CCCO1)Nc1ncnc(OCCOc2ncc(Br)cn2)c1-c1ccc2c(c1)OCO2 (single isomer, unassigned) [WX024] | pIC50 | 9.60
O=S(=O)(Nc1ncnc(OCCOc2ncc(Br)cn2)c1-c1ccc2c(c1)OCC2)N1CC2(COC2)C1 | pIC50 | 8.52

Query block: Fill in reported pIC50 for this entry: `O=S(=O)(NCC(F)(F)F)Nc1ncnc(OCCOc2ncc(Br)cn2)c1-c1ccc2scnc2c1`
Result block: 8.59

Query block: Fill in reported pIC50 for this entry: `CCCCNS(=O)(=O)Nc1ncnc(OCCOc2ncc(Br)cn2)c1-c1ccc2scnc2c1`
Result block: 8.82
